# Test target: Epidermal growth factor receptor (Homo sapiens, UniProt P00533)
# Sequence (P00533 whole entry, the tested form may be a part): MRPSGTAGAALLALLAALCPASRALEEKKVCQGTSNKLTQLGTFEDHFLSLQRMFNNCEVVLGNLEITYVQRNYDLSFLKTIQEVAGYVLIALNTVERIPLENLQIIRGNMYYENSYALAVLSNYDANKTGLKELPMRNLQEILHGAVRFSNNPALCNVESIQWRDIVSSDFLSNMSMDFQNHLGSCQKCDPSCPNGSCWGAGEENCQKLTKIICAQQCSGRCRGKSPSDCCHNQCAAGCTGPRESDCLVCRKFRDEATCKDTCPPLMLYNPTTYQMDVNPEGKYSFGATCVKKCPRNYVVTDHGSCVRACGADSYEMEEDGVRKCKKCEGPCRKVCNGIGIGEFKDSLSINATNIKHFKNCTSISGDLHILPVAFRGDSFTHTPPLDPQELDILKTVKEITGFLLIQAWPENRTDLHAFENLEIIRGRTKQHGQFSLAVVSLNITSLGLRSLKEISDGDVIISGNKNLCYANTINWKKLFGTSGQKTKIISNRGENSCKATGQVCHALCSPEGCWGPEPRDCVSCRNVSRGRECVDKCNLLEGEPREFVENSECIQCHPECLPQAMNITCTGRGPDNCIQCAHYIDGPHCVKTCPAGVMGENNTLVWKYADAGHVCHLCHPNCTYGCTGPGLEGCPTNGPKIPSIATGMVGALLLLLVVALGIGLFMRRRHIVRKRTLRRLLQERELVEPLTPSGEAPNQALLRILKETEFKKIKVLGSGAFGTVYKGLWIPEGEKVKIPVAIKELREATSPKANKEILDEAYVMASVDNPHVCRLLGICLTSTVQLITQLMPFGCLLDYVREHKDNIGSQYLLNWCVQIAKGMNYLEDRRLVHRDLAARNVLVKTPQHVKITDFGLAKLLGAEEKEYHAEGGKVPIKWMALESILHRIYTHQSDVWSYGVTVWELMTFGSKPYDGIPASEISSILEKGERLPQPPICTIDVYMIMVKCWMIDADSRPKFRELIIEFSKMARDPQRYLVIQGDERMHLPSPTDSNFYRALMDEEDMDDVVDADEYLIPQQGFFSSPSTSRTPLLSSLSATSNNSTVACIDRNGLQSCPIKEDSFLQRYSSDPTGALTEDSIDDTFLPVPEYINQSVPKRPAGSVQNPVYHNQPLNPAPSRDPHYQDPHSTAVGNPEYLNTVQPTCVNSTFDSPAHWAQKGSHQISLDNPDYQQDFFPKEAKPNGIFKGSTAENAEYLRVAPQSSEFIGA
# Assay notes: Inhibition of recombinant 6His-tagged EGFR cytoplasmic domain (645 to 1186 residues) (unknown origin) autophosphorylation expressed in baculovirus infected Sf9 insect cells preincubated for 10 mins followed by ATP and MgCl2 addition measured after 60 mins by DELFIA/time-resolved fluorometric analysis
Measured metric: log10(IC50) (log10 of the value in µM)

{"columns": ["Structure as smiles", "log10(IC50)"],
 "data": [
  ["CCN(CC)CCON=C1/C(=C/c2cc(OC)c(OC)c(OC)c2Br)CN(C)C/C1=C\\c1cc(OC)c(OC)c(OC)c1Br", -1.00],
  ["COc1cc(/C=C2\\CCc3ccc([N+](=O)[O-])cc3\\C2=N\\O)c(Br)c(OC)c1OC", 0.28],
  ["COc1cc(/C=C2\\CCc3c(O)cccc3\\C2=N\\O)c(Br)c(OC)c1OC", 0.66],
  ["COc1ccc2c(c1)CCC(=C\\c1cc(OC)c(OC)c(OC)c1Br)/C2=N\\O", 0.32],
  ["COc1ccc(OC)c2c1CCC(=C\\c1cc(OC)c(OC)c(OC)c1Br)/C2=N\\O", 0.62]
]}
